Where do these numbers come from? They come from PubChem BioAssay (NCI).

Test system: SF-539 CNS
Test method notes: NCI tumour cell line growth inhibition, 48 h
Endpoint label: GI50

{"Compound": "COc1ccccc1C1=C(Nc2ccccc2)C(=O)NC1=O", "Result": "> 25 µM"}
{"Compound": "Cc1ccc(-c2c3c(nn2-c2ccc(S(N)(=O)=O)cc2)-c2ccccc2C3)cc1", "Result": "18.3 µM"}
{"Compound": "COc1cccc(-c2ccc3c(c2)C2CCN(Cc4ccccc4)C3C2)c1 (configuration not stated)", "Result": "10.3 µM"}
{"Compound": "Oc1ccc(O)c(-c2cc(-c3ccc(Cl)cc3)nn2-c2ccccc2)c1", "Result": "31 µM"}
{"Compound": "CC1=CC(=O)C(C(C)C)=CC1=Nc1cc(Br)c(O)c(Br)c1", "Result": "2.29 µM"}
{"Compound": "COc1ccc(/C=c2\\sc3n(c2=O)C2C(NN=3)N(C)C(=O)N2C)cc1 (configuration not stated)", "Result": "0.78 µM"}
{"Compound": "COC1=C(C)C(=O)c2c(c(CCCl)c3n2CCC3O)C1=O (configuration not stated)", "Result": "0.302 µM"}
{"Compound": "Nc1nc(N)c(C=Nc2ccc(Br)cc2)c(Nc2ccc(Br)cc2)n1", "Result": "12.1 µM"}
{"Compound": "Cc1cc(Nc2nc(-c3cccnc3)nc3ccccc23)n[nH]1", "Result": "1.82 µM"}
{"Compound": "COc1cccc(-c2nn(-c3ccccc3)cc2-c2ccnc(NCCNC(=O)Nc3cccc(C(F)(F)F)c3)c2)c1", "Result": "1.75 µM"}
{"Compound": "COc1ccc2c(C3(c4cn(C)c5cc(OC)ccc45)C(=O)Nc4ccc(Cl)cc43)cn(C)c2c1", "Result": "9.19 µM"}
{"Compound": "FC(F)(F)c1ccc(-c2cnc(-n3cc(COCCN4CCCCC4)nn3)nc2NC2CCCCCC2)cc1", "Result": "3.89 µM"}
